B1: FAM107A (parent)
chain: HRRGLGVDSKPELQRVLEHRRRNQ

Variants of: B1
EXPERIMENTAL_DETAILS: protein stability index of a GFP-peptide fusion (GPS, HEK-293T) (PSI 1-6); higher = more stable;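 note: lentivirally expressed fusions sorted by FACS into six bins by GFP to DsRed ratio, PSI derived from sequencing read proportions per bin multiplied by bin number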
EXPERIMENTAL_PARAMETERS: c terminus: a fixed tail appended
OUTCOME_MEASURE: protein stability index
Lab note: write the figure by itself, no unit.

Example entries and their recorded answers appear below.
R2W :: 3.71
P11H :: 4.35
E18L :: 3.98
V16N :: 4.76
N23A :: 2.99

Value of measured protein stability index for the entry Q14P : 4

Value of measured protein stability index for the entry L13R : 4.14
